Documented growth across a set of compounds
# System: NCI-H226 lung
# assay.summary: NCI-60 one-dose screen, 48 h (100 = growth as untreated, 0 = no growth, -100 = all killed)
# run.conditions: 10 µM unless noted
# Description: Growth inhibition of the NCI-H226 human Non-Small Cell Lung tumor cell line is measured as a screen for anti-cancer activity. Cells are grown in 96 well plates and exposed to the test compound for 48 hours. Compounds are tested at a single concentration, which is 10^-5 M for most compounds. The reported endpoint is percent growth (GI% or GIPRCNT), where numbers from 0 - 100% represent growth inhibition, and numbers from -100% - 0 represent cell death. […]
About 83,000 compounds went through this panel and 20% of them were active in at least one assay; those are over-represented in the sample as a whole.

[
  {
    "compound": "CC1=C2C(=C[C@@](C)(COS(N)(=O)=O)[C@@H]2O)C(=O)[C@](C)(O)C12CC2",
    "growth, %": 85.8
  },
  {
    "compound": "NC(=O)N1N=C(c2cc3ccccc3oc2=O)CC1c1cn(-c2ccccc2)nc1-c1ccc(Cl)cc1 (centres undefined)",
    "growth, %": 50.4
  },
  {
    "compound": "CCOP(=O)(OCC)OC[C@]12CCC(C)(C)C[C@H]1C1=CC[C@@H]3[C@@]4(C)C/C(=C\\c5cccnc5)[C@H](OP(=O)(OCC)OCC)C(C)(C)[C@@H]4CC[C@@]3(C)[C@]1(C)CC2",
    "growth, %": 34.2
  },
  {
    "compound": "CNC(=O)c1cc(N2CCc3cc(NC(=O)Nc4ccc(Cl)c(Cl)c4)ccc32)ccn1",
    "growth, %": 95.9
  }
]

----------
# Test system: A549/ATCC NSCLC
# assay.summary: NCI-60 one-dose screen, 48 h
# run.conditions: 10 µM unless noted
# Method: Growth inhibition of the A549/ATCC human Non-Small Cell Lung tumor cell line is measured as a screen for anti-cancer activity. Cells are grown in 96 well plates and exposed to the test compound for 48 hours. Compounds are tested at a single concentration, which is 10^-5 M for most compounds. The reported endpoint is percent growth (GI% or GIPRCNT), where numbers from 0 - 100% represent growth inhibition, and numbers from -100% - 0 represent cell death. […]
The panel holds about 83,000 compounds, 20% with a hit somewhere; the sample as a whole holds those more often. Active and inactive are the calls of the source. Rule for the calls: active = growth percent below 10; inactive = the rest.
Outcome codes: active, inactive

[
  {
    "molecule": "CCC(CC)n1c(=O)c(SC2=NC3C(NN2)N(CC)C(=O)N3CC)c(C(=O)O)c2ccccc21 (stereo unspecified)",
    "test.target": "A549/ATCC NSCLC",
    "qualitative.label": "inactive"
  },
  {
    "molecule": "O=C(CCCCCCN1CC(=O)N2[C@@H](c3cccc(Cl)c3)c3[nH]c4ccccc4c3C[C@H]2C1=O)NO",
    "test.target": "A549/ATCC NSCLC",
    "qualitative.label": "inactive"
  },
  {
    "molecule": "COc1ccc(OC)c([C@H]2c3[nH]c4ccccc4c3C[C@H]3C(=O)N(CCCCCCC(=O)NO)CC(=O)N23)c1",
    "test.target": "A549/ATCC NSCLC",
    "qualitative.label": "inactive"
  },
  {
    "molecule": "O=C(NNc1nc2cc(F)cc(F)c2n2cccc12)c1ccncn1",
    "test.target": "A549/ATCC NSCLC",
    "qualitative.label": "inactive"
  },
  {
    "molecule": "O=C(Nc1ccccc1)Nc1nc2ccc([N+](=O)[O-])cc2s1",
    "test.target": "A549/ATCC NSCLC",
    "qualitative.label": "active"
  },
  {
    "molecule": "O=C1Nc2ccc(Br)cc2/C1=N\\c1nnc(-c2ccc(Cl)cc2)o1",
    "test.target": "A549/ATCC NSCLC",
    "qualitative.label": "inactive"
  },
  {
    "molecule": "CS(=O)(=O)c1nccc(-c2c(-c3ccc(F)c(OCc4ccc(F)cc4)c3)nc3sccn23)n1",
    "test.target": "A549/ATCC NSCLC",
    "qualitative.label": "inactive"
  },
  {
    "molecule": "O=C1[C@@H]2Cc3c([nH]c4ccccc34)[C@H](c3c(Cl)cccc3Cl)N2C(=O)CN1C1CCN(Cc2ccccc2)CC1",
    "test.target": "A549/ATCC NSCLC",
    "qualitative.label": "inactive"
  },
  {
    "molecule": "O=C(N/N=C\\c1ccc(Cl)cc1)c1ccc2nc(-c3ccc(Br)cc3)[nH]c2c1",
    "test.target": "A549/ATCC NSCLC",
    "qualitative.label": "active"
  },
  {
    "molecule": "Cn1cc2c(c1)-c1c(sc3nc(-c4ccc(NC(=O)Nc5cc(C(C)(C)C)on5)cc4)cn13)CC2",
    "test.target": "A549/ATCC NSCLC",
    "qualitative.label": "inactive"
  },
  {
    "molecule": "COc1cc(C(=O)C[n+]2ccc3ccccc3c2)cc(OC)c1OC",
    "test.target": "A549/ATCC NSCLC",
    "qualitative.label": "inactive"
  },
  {
    "molecule": "O=C(O)c1ccc(-n2cc(CNc3ccc(F)cc3)c(-c3ccc(C(F)(F)F)cc3)n2)cc1",
    "test.target": "A549/ATCC NSCLC",
    "qualitative.label": "inactive"
  },
  {
    "molecule": "COc1cc2c3c(n(CCCNCC4CC4)c(=O)c2cc1OC)-c1cc2c(cc1C3=O)OCO2",
    "test.target": "A549/ATCC NSCLC",
    "qualitative.label": "active"
  },
  {
    "molecule": "O=C1c2c(c3c4cc(O)ccc4oc3c3[nH]c4ccccc4c23)C(=O)N1O",
    "test.target": "A549/ATCC NSCLC",
    "qualitative.label": "inactive"
  },
  {
    "molecule": "N#C/C(=C\\c1ccc2ccccc2c1)C(=O)Nc1sc2c(c1C#N)CCC2",
    "test.target": "A549/ATCC NSCLC",
    "qualitative.label": "inactive"
  },
  {
    "molecule": "CN(C)CCn1c2ccc(N)cc2c2nc3ccccc3nc21",
    "test.target": "A549/ATCC NSCLC",
    "qualitative.label": "inactive"
  },
  {
    "molecule": "C=C1C(=O)O[C@@H]2C[C@@H](C)[C@H](OC)CC(=O)[C@](C)(OC(C)=O)C[C@H](OC(=O)/C(C)=C\\C)[C@@H]12",
    "test.target": "A549/ATCC NSCLC",
    "qualitative.label": "inactive"
  },
  {
    "molecule": "CCC(=O)Nc1cc(Nc2cc(NC3CC3)n3ncc(C#N)c3n2)ccc1C",
    "test.target": "A549/ATCC NSCLC",
    "qualitative.label": "inactive"
  },
  {
    "molecule": "COc1ccc([C@@H]2[C@@H](O)C(=O)N2c2cc(OC)c(OC)c(OC)c2)cc1",
    "test.target": "A549/ATCC NSCLC",
    "qualitative.label": "inactive"
  },
  {
    "molecule": "COc1cc(OC)c(S(N)(=O)=O)cc1C(=O)/C=C/c1ccccc1",
    "test.target": "A549/ATCC NSCLC",
    "qualitative.label": "inactive"
  },
  {
    "molecule": "CN1CCN(c2ccc3c(C(N)=O)c(NC(=O)c4ccc(C(C)(C)C)cc4)sc3c2)CC1",
    "test.target": "A549/ATCC NSCLC",
    "qualitative.label": "inactive"
  },
  {
    "molecule": "COc1ccccc1N1CCN(C2=NN=C(c3cccc(Cl)c3)c3ccccc3C2)CC1",
    "test.target": "A549/ATCC NSCLC",
    "qualitative.label": "inactive"
  },
  {
    "molecule": "COC(=O)[C@@]1(C)CC[C@]2(C)CC[C@]3(C)C(=CC(=O)[C@@H]4[C@@]5(C)Cc6c(n(CC#CCN7CCN(C)CC7)c7ccccc67)C(C)(C)[C@@H]5CC[C@]43C)[C@@H]2C1",
    "test.target": "A549/ATCC NSCLC",
    "qualitative.label": "inactive"
  },
  {
    "molecule": "CCOC(=O)C1=C(C)Nc2nc3ccccc3n2C1c1cccc(Br)c1 (stereo unspecified)",
    "test.target": "A549/ATCC NSCLC",
    "qualitative.label": "inactive"
  },
  {
    "molecule": "Cn1c2ccccc2c2c3c(c4c5ccc(Br)cc5oc4c21)C(=O)N(O)C3=O",
    "test.target": "A549/ATCC NSCLC",
    "qualitative.label": "inactive"
  },
  {
    "molecule": "O=C1c2c(c3c4cc(Br)ccc4[nH]c3c3ccc4ccccc4c23)C(=O)N1CCN1CCNCC1",
    "test.target": "A549/ATCC NSCLC",
    "qualitative.label": "inactive"
  },
  {
    "molecule": "CCOC(=O)c1c(NC(=O)c2ccc(C(C)(C)C)cc2)sc2cc(OCCN3CCCCC3)ccc12",
    "test.target": "A549/ATCC NSCLC",
    "qualitative.label": "inactive"
  },
  {
    "molecule": "C=C(C)[C@@H]1CC[C@]2(COS(C)(=O)=O)CC[C@]3(C)[C@H](CC[C@@H]4[C@@]5(C)CCCNC(C)(C)[C@@H]5CC[C@]43C)[C@@H]12",
    "test.target": "A549/ATCC NSCLC",
    "qualitative.label": "inactive"
  },
  {
    "molecule": "Cc1ccc(/C=C/CC(=O)Nc2ccc(C(=O)Nc3ccc(F)cc3N)nc2)cn1",
    "test.target": "A549/ATCC NSCLC",
    "qualitative.label": "inactive"
  },
  {
    "molecule": "COc1cnc2c(c1)C(=O)c1c-2n(CCCn2ccnc2)c(=O)c2cc(OC)c(OC)cc12",
    "test.target": "A549/ATCC NSCLC",
    "qualitative.label": "active"
  },
  {
    "molecule": "CS(=O)c1nccc(-c2c(-c3ccc(F)c(OCc4ccc(F)cc4)c3)nc3sccn23)n1 (stereo unspecified)",
    "test.target": "A549/ATCC NSCLC",
    "qualitative.label": "inactive"
  },
  {
    "molecule": "C/C(=C(/C)C1CC1CCN(C(=O)c1ccc([N+](=O)[O-])cc1)S(=O)(=O)c1ccc(C)cc1)C1CCCCC1 (stereo unspecified)",
    "test.target": "A549/ATCC NSCLC",
    "qualitative.label": "inactive"
  },
  {
    "molecule": "COc1cc2oc(-c3cccc(NC(=O)c4cc(NC(=O)[C@H](C)N)ccc4Cl)c3)cc(=O)c2c(OC)c1OC",
    "test.target": "A549/ATCC NSCLC",
    "qualitative.label": "inactive"
  },
  {
    "molecule": "NS(=O)(=O)c1ccc(Nc2nc(N/N=C/c3ccc(C(F)(F)F)cc3)nc(Nc3ccccc3)n2)cc1",
    "test.target": "A549/ATCC NSCLC",
    "qualitative.label": "inactive"
  },
  {
    "molecule": "CC1=C2C(=C[C@@](C)(COS(N)(=O)=O)[C@@H]2O)C(=O)[C@](C)(O)C12CC2",
    "test.target": "A549/ATCC NSCLC",
    "qualitative.label": "inactive"
  },
  {
    "molecule": "C/C(=C(/c1ccc(O)cc1)c1ccc(OCCN2CCCC2)cc1)c1ccc(Cl)cc1",
    "test.target": "A549/ATCC NSCLC",
    "qualitative.label": "inactive"
  }
]

The reported measurements were obtained from PubChem BioAssay (NCI).
